Can you tell me pIC50 for the items I'm about to list?
- studyTarget: CDK6/CycD3 (Homo sapiens (Human), UniProt Q00534)
- Sequence (Q00534 whole entry): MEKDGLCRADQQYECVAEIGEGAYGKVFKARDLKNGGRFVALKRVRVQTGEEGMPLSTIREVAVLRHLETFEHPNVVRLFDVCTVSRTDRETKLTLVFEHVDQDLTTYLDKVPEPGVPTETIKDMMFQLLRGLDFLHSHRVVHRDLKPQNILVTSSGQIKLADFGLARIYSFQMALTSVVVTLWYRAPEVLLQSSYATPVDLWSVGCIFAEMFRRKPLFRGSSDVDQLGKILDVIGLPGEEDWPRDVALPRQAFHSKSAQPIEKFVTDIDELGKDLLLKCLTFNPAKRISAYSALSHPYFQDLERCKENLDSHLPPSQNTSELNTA
- Sequence (P30281 whole entry partner): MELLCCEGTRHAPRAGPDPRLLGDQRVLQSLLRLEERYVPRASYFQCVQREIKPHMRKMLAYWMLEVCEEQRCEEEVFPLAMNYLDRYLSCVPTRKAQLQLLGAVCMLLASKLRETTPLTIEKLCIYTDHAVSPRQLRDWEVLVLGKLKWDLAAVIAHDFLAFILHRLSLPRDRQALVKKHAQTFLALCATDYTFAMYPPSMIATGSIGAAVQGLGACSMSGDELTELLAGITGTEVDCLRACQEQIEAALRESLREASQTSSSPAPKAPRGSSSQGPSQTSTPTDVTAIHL
- assayText: CDK6/CycD3 kinase inhibition (Biological Table 1)
Give bare numbers, as −log10 of the molar value.

CN1CCN(c2ccc(Nc3ncc4c(n3)N3C(=NCCC35CCCCC5)C=C4)nc2)CC1
5.74

Now for the molecule whose pIC50 we want.
Req: I am curious: what pIC50 value has been reported for CN1CCN(c2ccc(Nc3ncc4c(n3)N3C(CC4=O)C(=O)NCC3(C)C)nc2)CC1 (stereo not shown) ?
Resp: 4.51

###

- studyTarget: CDK2/CyclinE (Homo sapiens (Human))
- assayText: CDK2/cyclinE kinase assay, microfluidic kinase detection (Caliper, Nanosyn)
- measurementConditions: 12-point dose-response, ATP at Km (100 μM), enzyme 0.28 nM, incubation 1 hr; read-out: CDK2/Cyclin E
- Protocol: Selected compounds disclosed herein were tested in CDK4/cyclinD1, CDK2/CycA and CDK2/cyclinE kinase assays by Nanosyn (Santa Clara, Calif.) to determine their inhibitory effect on these CDKs. The assays were performed using microfluidic kinase detection technology (Caliper Assay Platform). The compounds were tested in 12-point dose-response format in singlicate at Km for ATP. […]
testReadout: IC50
For clarity, give the value followed by its unit.

Some compounds with known IC50 results, for comparison:
CN1CCN(c2ccc(Nc3ncc4cc5n(c4n3)C3(CCOCC3)CNC5=O)nc2)CC1
23 µM
CO[C@H]1CC[C@]2(CC1)CNC(=O)c1cc3cnc(Nc4ccc(N5CCN(C)CC5)cn4)nc3n12
33 µM
CN1CCN([C@H]2CC[C@@H](Nc3ncc4cc5n(c4n3)C3(CCCCC3)CNC5=O)CC2)CC1
6 µM

Now for the compound whose IC50 we want.
Req: Lab note: need IC50 for `CN1CCN([C@H]2CC[C@H](Nc3ncc4cc5n(c4n3)C3(CCCCC3)CNC5=O)CC2)CC1` on CDK2/CyclinE (Homo sapiens (Human)), anyone have it?
Resp: 0.4 µM

Reference source: patent US10829490B2
